# Measurement conditions: buffer; pH 7.4; 200.0 µM
Decision: solubility kinetic compared against 20 µg/mL; not below it gives t, below it gives f.

Molecule	Group label
O=[N+]([O-])c1ccc(CSc2ncnc3ccccc23)cc1	f
COc1ccccc1Nc1nc(Cl)c(C=O)s1	f
Clc1ccc(NCc2cccnc2)c(Cl)c1	t
Cc1ccccc1N1CC(C(=O)Nc2ccc3c(c2)OCO3)CC1=O (stereo not given)	t
CN(C)Cc1c(O)ccc2c(=O)c(-c3ccccc3Cl)coc12	t
Cl.Nc1nc2cc3ccccc3cc2[nH]c1=O	f

(Q) Tell me whether solubility kinetic is at least 20 µg/mL here: CN1C(=O)/C(=C/c2ccc(O)c([N+](=O)[O-])c2)N(C)C1=S
(A) f

(Q) Tell me whether solubility kinetic is at least 20 µg/mL here: Cc1cc(C(=O)NCC2CCCO2)sc1C (stereo not given)
(A) t

(Q) Tell me whether solubility kinetic is at least 20 µg/mL here: COc1ccc(NS(=O)(=O)N2CCOCC2)cc1
(A) t

(Q) Tell me whether solubility kinetic is at least 20 µg/mL here: COc1ccc(N2CCN(c3ccc(Cl)nn3)CC2)cc1
(A) t

(Q) Tell me whether solubility kinetic is at least 20 µg/mL here: COc1ccccc1NC(=O)CCNC(=O)c1ccc(C)cc1
(A) t

* * *

Quick reference: solubility kinetic of the listed items.
# Measurement conditions: buffer; pH 7.4; 200.0 µM
Record the value in mg/mL, omitting the unit from your answer.

// solved cases for solubility kinetic follow
Compound	Reported property	Measured value
COc1cc2sc(C)nc2c2ccccc12	solubility kinetic	0.0029
Cc1ccc(CNc2nc(N)c([N+](=O)[O-])c(NCCO)n2)cc1	solubility kinetic	0.0434
O=C(Nc1ccc(S(=O)(=O)NC2=NCCCCC2)cc1)c1ccc(Cl)c([N+](=O)[O-])c1	solubility kinetic	0.022
COc1ccccc1CNC(=O)C(NC(=O)c1ccccc1)C(C)C (stereo not drawn)	solubility kinetic	0.0099
COc1ccc2[nH]cc(CCNC(=S)NCCc3ccccc3)c2c1	solubility kinetic	0.0263
Cc1ccc2c(c1)N(CC(=O)N1CCCC(C)C1)C(=O)CO2 (stereo not drawn)	solubility kinetic	0.0453

(Q) Reported solubility kinetic, compound Cc1cc(SCc2ccccc2Cl)nc(=O)[nH]1 : ____
(A) 0.03

(Q) Reported solubility kinetic, compound Cc1ccc(-n2c(=O)[nH]c3c(C(N)=O)nc(C(C)C)nc32)cc1 : ____
(A) 0.0094

(Q) Reported solubility kinetic, compound COc1ccc(NC(=O)Cn2c(=O)oc3ccccc32)cc1 : ____
(A) 0.035

* * *

# Measurement conditions: buffer; pH 7.4; 200.0 µM
Reported property: solubility kinetic (µg/mL)
Record the value in µg/mL, omitting the unit from your answer.

Molecule	solubility kinetic (µg/mL)
c1ccc(Oc2cccc3cccnc23)nc1	32.5

(Q) Reported solubility kinetic, molecule CCC(C)c1ccc(NC(=O)NCCN2CCCCC2)cc1 (stereo not given) : ____
(A) 40.3

(Q) Reported solubility kinetic, molecule NC(=O)c1sc2nc3c(cc2c1N)CCC3 : ____
(A) 31.3

(Q) Reported solubility kinetic, molecule Cc1nc2ccccc2cc1C(=O)Nc1ccccc1Cl : ____
(A) 6.7

(Q) Reported solubility kinetic, molecule O=C(Oc1c(-c2ccccc2)c(=O)n2c3c(cccc13)CC2)c1ccco1 : ____
(A) 32.6

(Q) Reported solubility kinetic, molecule CCN1CCN(c2oc(-c3ccc([N+](=O)[O-])cc3)nc2C#N)CC1 : ____
(A) 4

(Q) Reported solubility kinetic, molecule CCCNC(=O)c1ccc2c(c1)S(=O)(=O)c1ccccc1C2=O : ____
(A) 7.9

(Q) Reported solubility kinetic, molecule O=C(CC1CCCC1)Nc1cccc(Br)c1 : ____
(A) 18.1

(Q) Reported solubility kinetic, molecule COc1cc(CN2CCCCCC2)cc(OC)c1O : ____
(A) 27

(Q) Reported solubility kinetic, molecule COc1cccc(C(=O)CC(=O)C(=O)Nc2cccc([N+](=O)[O-])c2C)c1 : ____
(A) 31.6

* * *

Quick reference: solubility kinetic of the listed items.
# Measurement conditions: buffer; pH 7.4; 200.0 µM
Record the value in µg/mL, omitting the unit from your answer.

// solved cases for solubility kinetic follow
Compound	Reported property	Measured value
CCOC(=O)c1sc2nc(C)nc(NCc3ccccc3)c2c1C	solubility kinetic	0.3
Nc1ccc(SC(F)(F)F)cc1	solubility kinetic	6
CCN(C(=O)c1ccc2c(c1)OCO2)C12CC3CC(CC(C3)C1)C2	solubility kinetic	4
CCc1nc(SCC(=O)NC2CC2)c2c(C)c(C)sc2n1	solubility kinetic	2.5
COc1cc(C(=O)NC(C)C2CC3CCC2C3)cc(OC)c1OC (stereo not given)	solubility kinetic	9.8

(Q) Reported solubility kinetic, compound Cc1nc([N+](=O)[O-])cn1CC(=O)Nc1ccc([N+](=O)[O-])cc1 : ____
(A) 1.3

* * *

# Measurement conditions: buffer; pH 7.4; 200.0 µM
Reported property: solubility kinetic (µg/mL)
Record the value in µg/mL, omitting the unit from your answer.

// solved cases for solubility kinetic follow
Molecule	solubility kinetic, µg/mL
Clc1ccccc1C1CC(c2ccccc2)=Nc2ccccc2N1 (centres undefined)	1.2
Cc1ccc(SCC(=O)Nc2ccc3c(c2)C(=O)N(C)C3=O)cc1	3.2
CC1(C)CC(NC(=O)c2ccc(-c3ccc([N+](=O)[O-])cc3)o2)CC(C)(C)N1	41.1

(Q) Reported solubility kinetic, molecule Cc1ccc(C)c(CN2C(=O)COc3ccccc32)c1 : ____
(A) 2.8

(Q) Reported solubility kinetic, molecule COc1ccc(C)cc1Nc1nc(N)c2ccccc2n1.Cl : ____
(A) 47.1

* * *

Quick reference: solubility kinetic of the listed items.
# Measurement conditions: buffer; pH 7.4; 200.0 µM
Record the value in µg/mL, omitting the unit from your answer.

// solved cases for solubility kinetic follow
Compound	Uom	solubility kinetic
Cc1ccc(OC(=O)c2ccc(Cl)c([N+](=O)[O-])c2)cn1	µg/mL	42.8
COc1ccc(N2CCN(C(CNS(=O)(=O)c3ccc(C)cc3)c3ccccc3)CC2)cc1 (stereo unspecified)	µg/mL	1.4
CCOc1ccc(CNc2ncc(-c3ccccc3)n2C)cc1	µg/mL	26

Continue with the next compound.
(Q) Reported solubility kinetic, compound O=C1CN=C(c2ccccc2)c2ccccc2N1 : ____
(A) 27.2

* * *

# Measurement conditions: buffer; pH 7.4; 200.0 µM
Quick reference: solubility kinetic of the listed items.

Compound	Measured value
Cc1ccc(S(=O)(=O)/N=C(/Nc2ccc([N+](=O)[O-])cc2[N+](=O)[O-])c2ccccc2)cc1	5.9 µg/mL

Continue with the next compound.
(Q) Reported solubility kinetic, compound COc1ccc(/C=C/C(=O)ONC2=NCCCCC2)cc1OC : ____
(A) > 47.8 µg/mL

* * *

# Measurement conditions: buffer; pH 7.4; 200.0 µM
Quick reference: solubility kinetic of the listed items.
Record the value in µg/mL, omitting the unit from your answer.

// solved cases for solubility kinetic follow
Compound	Reported property	Measured value
N#CC1=C(N)Oc2c(c(=O)sc3ccccc23)C1c1ccncc1 (configuration not stated)	solubility kinetic	3.6
O=C(Cc1ccc(F)cc1)N1CCN(c2ccc([N+](=O)[O-])cc2)CC1	solubility kinetic	3.5
O=C(Nc1ccc(CN2CCOCC2)cc1)c1ccc(Br)cc1	solubility kinetic	0.6

(Q) Reported solubility kinetic, compound CC(C)(C)C(=O)CSc1ncnc2sc3c(c12)CCC3 : ____
(A) 0.7

(Q) Reported solubility kinetic, compound CN(CCOc1ccccc1)CC(=O)Nc1cccc(C#N)c1 : ____
(A) 43

(Q) Reported solubility kinetic, compound Cc1ccsc1C(=O)OCC(=O)NCCc1ccccc1 : ____
(A) 10.4

* * *

# Measurement conditions: buffer; pH 7.4; 200.0 µM
Reported property: solubility kinetic (µg/mL)
Record the value in µg/mL, omitting the unit from your answer.

// solved cases for solubility kinetic follow
Compound	Uom	Measured value
Cc1nc(SCC(=O)NC(=O)NC2CCCCC2)nc(C)c1C	µg/mL	47.8
CNc1nc(-c2c(C)[nH]c3ccc(OC)cc23)cs1	µg/mL	31.8
O=C(c1ccc(S(=O)(=O)NCc2ccco2)cc1)N1CCN(c2ccccc2)CC1	µg/mL	9.1
O=C(O)/C=C/C(=O)NCc1csc2ccccc12	µg/mL	5.2

(Q) Reported solubility kinetic, compound CCCc1c(C)nc(SCC(=O)C(C)(C)C)nc1OC(=O)N(C)C : ____
(A) 46.8

(Q) Reported solubility kinetic, compound Cc1cccnc1NC(=S)Nc1ccc(F)cc1F : ____
(A) 8

(Q) Reported solubility kinetic, compound NC(=O)c1c(NC(=O)COC(=O)c2ccc(O)c(Cl)c2)sc2c1CCCC2 : ____
(A) 8.5

(Q) Reported solubility kinetic, compound CC(C)CC(=O)Nc1ccc(C(=O)COC(=O)C2CCC2)cc1 : ____
(A) 5.3

(Q) Reported solubility kinetic, compound Cc1cc2c(cc1S(=O)(=O)N(C)c1ccccc1)NC(=O)CO2 : ____
(A) 3.3

(Q) Reported solubility kinetic, compound O=[N+]([O-])c1cccc(Nc2c3ccccc3nc3ccccc23)c1 : ____
(A) 2.8

(Q) Reported solubility kinetic, compound CC(C)c1ccc(CNc2ncccn2)cc1.O=C(O)C(=O)O : ____
(A) 31.3

(Q) Reported solubility kinetic, compound Cc1ccnc(NS(=O)(=O)c2ccccc2)c1 : ____
(A) 31.3

(Q) Reported solubility kinetic, compound COc1ccc(/C=C(\C#N)C(=O)NC(C)c2ccccc2)cc1O (centres undefined) : ____
(A) 18.3

(Q) Reported solubility kinetic, compound O=C(CCCN1C(=O)c2ccccc2C1=O)NCCCn1ccnc1 : ____
(A) 49.5

(Q) Reported solubility kinetic, compound COc1ccccc1OCCC(=O)NCc1ccc2c(c1)OCO2 : ____
(A) 45.1

(Q) Reported solubility kinetic, compound O=C(COC(=O)c1cc2ccccc2cc1O)Nc1ccccc1F : ____
(A) 6.3
